molecular target: Acetylcholinesterase (Homo sapiens, UniProt P22303); test: Inhibition of human recombinant AChE by Ellman's method
Sequence (P22303 whole entry): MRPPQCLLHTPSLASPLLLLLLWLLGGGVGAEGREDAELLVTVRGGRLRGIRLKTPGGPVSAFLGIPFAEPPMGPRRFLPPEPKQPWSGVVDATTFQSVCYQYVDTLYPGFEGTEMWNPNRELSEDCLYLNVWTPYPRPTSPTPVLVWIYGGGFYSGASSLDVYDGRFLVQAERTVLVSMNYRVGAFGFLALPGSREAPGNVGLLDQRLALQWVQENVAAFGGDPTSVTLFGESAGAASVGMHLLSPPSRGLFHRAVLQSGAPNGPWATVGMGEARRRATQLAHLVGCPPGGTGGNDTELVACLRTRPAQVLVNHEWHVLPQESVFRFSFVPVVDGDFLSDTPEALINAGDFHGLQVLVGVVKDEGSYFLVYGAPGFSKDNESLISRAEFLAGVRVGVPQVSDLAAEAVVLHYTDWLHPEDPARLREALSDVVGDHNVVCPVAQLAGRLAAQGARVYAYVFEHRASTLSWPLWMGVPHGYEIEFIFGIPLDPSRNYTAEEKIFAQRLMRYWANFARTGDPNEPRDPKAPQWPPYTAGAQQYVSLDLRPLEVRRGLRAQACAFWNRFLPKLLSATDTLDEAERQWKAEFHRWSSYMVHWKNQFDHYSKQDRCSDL
pIC50: −log10 of the molar value.
Think of 7 as a floor: if pIC50 stands on it or above, it is y; beneath it, n.

CCN(CCCNC1=CC(=O)C(NCCCNC(=O)CCCCC2CCSS2)=CC1=O)Cc1ccccc1OC (stereo not given): n

Let us examine a further case.
query: In plain terms: is recorded pIC50 at least 7 for CCN(CCCCCCNC1=CC(=O)C(NCCCCCCN(CC)Cc2ccccc2OC)=CC1=O)Cc1ccccc1OC ?
result: y

---

experiment: Inhibition of amyloid beta (1 to 42) self-aggregation assessed as amyloid fibril formation at 10 uM by thioflavin-T based fluorometric assay
Entries annotated with measured inhibition
Dear colleague, please return just the value in %, with no unit written.

query: Which inhibition value is on record for CCN(CCCCCCNC1=CC(=O)C(NCCCNC(=O)CCCCC2CCSS2)=CC1=O)Cc1ccccc1OC (stereo not given) ?
result: 34.4

Where do the numbers come from? From ChEMBL document CHEMBL1154602.
